Test system: PC-9
Assay: Cell proliferation assay, PC-9 cells (CellTiter-Glo, 72 hours)
Type: cell-based
Details: Homo sapiens, PC-9, 72 h, PC9 cells, CellTiter-Glo, read-out: PC9 GI50
OBSERVATION_TYPE: GI50 (nM)

{"columns": ["MOLECULE", "GI50 (nM)"],
 "data": [
  ["Cn1ncc2c1OCCN1CCCC(C)(C1)n1c(nc3ccc(N4CCOCC4)cc31)NC(=O)c1cc-2c(=O)n(C)c1 (centres unmarked)", 128]
]}

a. CCN1CCN(c2ccc3nc4n(c3c2)C[C@H](C)CCCOc2c(cnn2C)-c2cc(cn(C)c2=O)C(=O)N4)CC1
b. C[C@@H]1CCCOc2c(cnn2C)-c2cc(cn(C)c2=O)C(=O)Nc2nc3ccc4c(c3n2C1)CCNC4
c. Cn1ncc2c1OCCN(C1COC1)CCn1c(nc3ccccc31)NC(=O)c1cc-2c(=O)n(C)c1
d. C[C@@H]1CCCOc2c(cnn2C)-c2cc(cn(C)c2=O)C(=O)Nc2nc3ccc(N4CC(N(C)C)C4)cc3n2C1
Ask | Given 4 molecules, produce a descending ranking by GI50. Please express your ranking as an ordered list of the labels.
Reply | c, b, a, d
(c: 482 nM, b: 115 nM, a: 12 nM, d: 4.3 nM)
